Would you kindly list solubility change mitosis (log2) for each of these sequences?
# Tested on: HeLa Kyoto
# ASSAY PROCEDURE: solubility change mitosis vs G1/S (difference of NP-40 vs SDS log2 ratios) (log2 ratio difference); higher = more soluble in mitosis
# answer = number (no unit)

// solubility change mitosis (log2) lookup, sequence = MAAAGAFRLRRAASALLLRSPRLPARELSAPARLYHKKVVDHYENPRNVGSLDKTSKNVGTGLVGAPACGDVMKLQIQVDEKGKIVDARFKTFGCGSAIASSSLATEWVKGKTVEEALTIKNTDIAKELCLPPVKLHCSMLAEDAIKAALADYKLKQEPKKGEAEKK [ISCU] , result: 0.0125

Recorded result, MENTENSVDSKSIKNLEPKIIHGSESMDSGISLDNSYKMDYPEMGLCIIINNKNFHKSTGMTSRSGTDVDAANLRETFRNLKYEVRNKNDLTREEIVELMRDVSKEDHSKRSSFVCVLLSHGEEGIIFGTNGPVDLKKITNFFRGDRCRSLTGKPKLFIIQACRGTELDCGIETDSGVDDDMACHKIPVEADFLYAYSTAPGYYSWRNSKDGSWFIQSLCAMLKQYADKLEFMHILTRVNRKVATEFESFSFDATFHAKKQIPCIVSMLTKELYFYH [CASP3] , solubility change mitosis (log2): 0.0123

====

# Tested on: HeLa Kyoto
# ASSAY PROCEDURE: thermal stability score vs G1/S (z-score of summed log2 fold changes over temperatures); higher = more thermally stable than in G1/S
# SETTINGS: cell cycle stage: mitosis
The label depends only on thermal stability score: YES if it is at least 0.0003, NO if it is smaller.

Qu. Tell me whether thermal stability score is at least 0.0003 here: MSLHGKRKEIYKYEAPWTVYAMNWSVRPDKRFRLALGSFVEEYNNKVQLVGLDEESSEFICRNTFDHPYPTTKLMWIPDTKGVYPDLLATSGDYLRVWRVGETETRLECLLNNNKNSDFCAPLTSFDWNEVDPYLLGTSSIDTTCTIWGLETGQVLGRVNLVSGHVKTQLIAHDKEVYDIAFSRAGGGRDMFASVGADGSVRMFDLRHLEHSTIIYEDPQHHPLLRLCWNKQDPNYLATMAMDGMEVVILDVRVPCTPVARLNNHRACVNGIAWAPHSSCHICTAADDHQALIWDIQQMPRAIEDPILAYTAEGEINNVQWASTQPDWIAICYNNCLEILRV [DCAF7]
Ans. NO

Qu. Does thermal stability score meet or surpass 0.0003 for MASASGAMAKHEQILVLDPPTDLKFKGPFTDVVTTNLKLRNPSDRKVCFKVKTTAPRRYCVRPNSGIIDPGSTVTVSVMLQPFDYDPNEKSKHKFMVQTIFAPPNTSDMEAVWKEAKPDELMDSKLRCVFEMPNENDKLNDMEPSKAVPLNASKQDGPMPKPHSVSLNDTETRKLMEECKRLQGEMMKLSEENRHLRDEGLRLRKVAHSDKPGSTSTASFRDNVTSPLPSLLVVIAAIFIGFFLGKFIL [VAPA] ?
Ans. NO

Qu. Item MEPAEQPSELVSAEGRNRKAVLCQRCGSRVLQPGTALFSRRQLFLPSMRKKPALSDGSNPDGDLLQEHWLVEDMFIFENVGFTKDVGNIKFLVCADCEIGPIGWHCLDDKNSFYVALERVSHE [RABIF] with thermal stability score of 0.0003 or above?
Ans. YES

Qu. Is it the case that MAAAALRRFWSRRRAEAGDAVVAKPGVWARLGSWARALLRDYAEACRDASAEARARPGRAAVYVGLLGGAAACFTLAPSEGAFEEALLEASGTLLLLAPATRNRESEAFVQRLLWLRGRGRLRYVNLGLCSLVYEAPFDAQASLYQARCRYLQPRWTDFPGRVLDVGFVGRWWVLGAWMRDCDINDDEFLHLPAHLRVVGPQQLHSETNERLFDEKYKPVVLTDDQVDQALWEEQVLQKEKKDRLALSQAHSLVQAEAPR [C19ORF52] has thermal stability score reaching or exceeding 0.0003?
Ans. YES

Qu. Does thermal stability score meet or surpass 0.0003 for MADFLPSRSVLSVCFPGCLLTSGEAEQQRKSKEIDKCLSREKTYVKRLVKILLLGAGESGKSTFLKQMRIIHGQDFDQRAREEFRPTIYSNVIKGMRVLVDAREKLHIPWGDNSNQQHGDKMMSFDTRAPMAAQGMVETRVFLQYLPAIRALWADSGIQNAYDRRREFQLGESVKYFLDNLDKLGEPDYIPSQQDILLARRPTKGIHEYDFEIKNVPFKMVDVGGQRSERKRWFECFDSVTSILFLVSSSEFDQVLMEDRLTNRLTESLNIFETIVNNRVFSNVSIILFLNKTDLLEEKVQIVSIKDYFLEFEGDPHCLRDVQKFLVECFRNKRRDQQQKPLYHHFTTAINTENIRLVFRDVKDTILHDNLKQLMLQ [GNA13] ?
Ans. YES

Qu. Please indicate if the recorded thermal stability score for MALRVVRSVRALLCTLRAVPSPAAPCPPRPWQLGVGAVRTLRTGPALLSVRKFTEKHEWVTTENGIGTVGISNFAQEALGDVVYCSLPEVGTKLNKQDEFGALESVKAASELYSPLSGEVTEINEALAENPGLVNKSCYEDGWLIKMTLSNPSELDELMSEEAYEKYIKSIEE [GCSH] meets or exceeds 0.0003.
Ans. NO

Qu. API: above_or_equal(metric=thermal stability score, cutoff=0.0003) for item MAAAVGRLLRASVARHVSAIPWGISATAALRPAACGRTSLTNLLCSGSSQAKLFSTSSSCHAPAVTQHAPYFKGTAVVNGEFKDLSLDDFKGKYLVLFFYPLDFTFVCPTEIVAFSDKANEFHDVNCEVVAVSVDSHFSHLAWINTPRKNGGLGHMNIALLSDLTKQISRDYGVLLEGSGLALRGLFIIDPNGVIKHLSVNDLPVGRSVEETLRLVKAFQYVETHGEVCPANWTPDSPTIKPSPAASKEYFQKVNQ [PRDX3]
Ans. NO

Qu. Check the entry MAAAEEEPKPKKLKVEAPQALRENILFGMGNPLLDISAVVDKDFLDKYSLKPNDQILAEDKHKELFDELVKKFKVEYHAGGSTQNSIKVAQWMIQQPHKAATFFGCIGIDKFGEILKRKAAEAHVDAHYYEQNEQPTGTCAACITGDNRSLIANLAAANCYKKEKHLDLEKNWMLVEKARVCYIAGFFLTVSPESVLKVAHHASENNRIFTLNLSAPFISQFYKESLMKVMPYVDILFGNETEAATFAREQGFETKDIKEIAKKTQALPKMNSKRQRIVIFTQGRDDTIMATESEVTAFAVLDQDQKEIIDTNGAGDAFVGGFLSQLVSDKPLTECIRAGHYAASIIIRRTGCTFPEKPDFH [ADK] : does thermal stability score equal or exceed 0.0003?
Ans. YES

Qu. Threshold query (thermal stability score >= 0.0003) on MDALKSAGRALIRSPSLAKQSWGGGGRHRKLPENWTDTRETLLEGMLFSLKYLGMTLVEQPKGEELSAAAIKRIVATAKASGKKLQKVTLKVSPRGIILTDNLTNQLIENVSIYRISYCTADKMHDKVFAYIAQSQHNQSLECHAFLCTKRKMAQAVTLTVAQAFKVAFEFWQVSKEEKEKRDKASQEGGDVLGARQDCTPSLKSLVATGNLLDLEETAKAPLSTVSANTTNMDEVPRPQALSGSSVVWELDDGLDEAFSRLAQSRTNPQVLDTGLTAQDMHYAQCLSPVDWDKPDSSGTEQDDLFSF [LDLRAP1]
Ans. NO

Qu. API: above_or_equal(metric=thermal stability score, cutoff=0.0003) for item MAAYSYRPGPGAGPGPAAGAALPDQSFLWNVFQRVDKDRSGVISDTELQQALSNGTWTPFNPVTVRSIISMFDRENKAGVNFSEFTGVWKYITDWQNVFRTYDRDNSGMIDKNELKQALSGFGYRLSDQFHDILIRKFDRQGRGQIAFDDFIQGCIVLQRLTDIFRRYDTDQDGWIQVSYEQYLSMVFSIV [PDCD6]
Ans. YES

Qu. Textbook exercise: given the entry MAEPQPPSGGLTDEAALSCCSDADPSTKDFLLQQTMLRVKDPKKSLDFYTRVLGMTLIQKCDFPIMKFSLYFLAYEDKNDIPKEKDEKIAWALSRKATLELTHNWGTEDDETQSYHNGNSDPRGFGHIGIAVPDVYSACKRFEELGVKFVKKPDDGKMKGLAFIQDPDGYWIEILNPNKMATLM [GLO1] , state whether its thermal stability score is greater than or equal to 0.0003.
Ans. NO

====

# System: HeLa Kyoto
# ASSAY PROCEDURE: solubility in G1/S (NP-40 vs SDS abundance) (log2 ratio); higher = more soluble
# SETTINGS: cell cycle stage: G1/S
OUTCOME MEASURE: solubility in G1/S (log2)
Answer as a number with no unit attached.

Measured solubility in G1/S (log2), MSVGFIGAGQLAYALARGFTAAGILSAHKIIASSPEMNLPTVSALRKMGVNLTRSNKETVKHSDVLFLAVKPHIIPFILDEIGADVQARHIVVSCAAGVTISSVEKKLMAFQPAPKVIRCMTNTPVVVQEGATVYATGTHALVEDGQLLEQLMSSVGFCTEVEEDLIDAVTGLSGSGPAYAFMALDALADGGVKMGLPRRLAIQLGAQALLGAAKMLLDSEQHPCQLKDNVCSPGGATIHALHFLESGGFRSLLINAVEASCIRTRELQSMADQEKISPAALKKTLLDRVKLESPTVSTLTPSSPGKLLTRSLALGGKKD [PYCR2] : 0.291
